Tested on: UO-31 renal
protocolText: NCI tumour cell line growth inhibition, 48 h; in the data active means GI50 below about 0.43 µM; inactive means the rest
A correct response names exactly one class from true (1) = active, false (0) = inactive

CC(=O)/C=C/c1ccc(OCc2ccc(Cl)cc2)cc1 ... false (0)
Cc1nc2cc(Nc3nc(Nc4ccc(F)cc4)nc(N4CCOCC4)n3)ccc2n1Cc1ccccc1 ... false (0)
COc1cnc2c(c1)C(=O)c1c-2n(CCCN2CCC(O)CC2)c(=O)c2cc(Cl)ccc12 ... true (1)
Cc1[nH]c2cc(F)ccc2c1-c1nc2c3cccnc3c3ncccc3c2[nH]1 ... true (1)
COc1ccc(-c2csc(NC(=O)CN3CCN(c4cc5c(cc4F)c(=O)c(C(=O)O)cn5C4CC4)CC3)n2)cc1 ... false (0)
CCSC[C@@H]1C[C@](O)(c2ccc(F)cc2)[C@@H](c2ccc(F)cc2)O1 ... false (0)
CN(C)c1ccc(/C=C/c2sc3ccccc3[n+]2C)cc1 ... false (0)
N#CC(C#N)=C/C=C(\Sc1ccc(F)cc1Cl)c1ccc(Cl)cc1 ... false (0)

QUERY: Hi team, can someone confirm the assay call for CC(=O)O[C@H]1CC[C@@]2(C)C(=C/C(=N/OCCN3CCCC3)[C@H]3[C@@H]4CC[C@H](OC(C)=O)[C@@]4(C)CC[C@@H]32)C1 ?
RESULT: false (0)

* * *

Test system: PC-3 prostate
protocolText: NCI tumour cell line growth inhibition, 48 h
// class assignment uses TGI with these ranges: low value = under 9 µM, medium value = from 9 µM up to 20 µM, high value = 20 µM and over

Use the examples below as a reference point.
O=C(SCc1cccc2ccccc12)c1ccc(Cl)cc1 ... high value
C/C(=N\Nc1nc2ccccc2s1)c1cc2ccccc2cn1 ... high value
CC1OC(OC2C(O[C@H]3CC[C@@]4(C)C(=CC[C@H]5[C@@H]6C[C@@H]7O[C@]8(CC[C@@H](C)CO8)[C@@H](C)[C@@H]7[C@@]6(C)CC[C@@H]54)C3)OC(CO)C(O)C2O)C(O)C(O)C1O (stereo partly specified) ... low value
CC1(C)O[C@@H]2C[C@H]3[C@@H]4C[C@H](F)C5=CC(=O)C=C[C@]5(C)[C@@]4(F)[C@@H](O)C[C@]3(C)[C@]2(C(=O)CO)O1 ... high value
NC(CSSCC(N)C(=O)O)C(=O)O (stereo unspecified) ... high value

QUERY: Which TGI category applies to CN(CCc1ccccn1)C(=S)N/N=C(\c1ccccc1)c1ccccn1 here?
RESULT: low value

QUERY: Classify this molecule: CCCCCCNCc1cc(C(C)(C)C)cc(CNCCCCCC)c1O
RESULT: low value

QUERY: GET /class?item= CC1(C)COC2=C(C1)C(=O)c1ccccc1C2=O
RESULT: low value

QUERY: Exam item: assign Cn1c(=O)c2c(nc3sc4ccccc4c(=O)n32)n(C)c1=O to the correct category.
RESULT: high value

QUERY: Which class holds CC(Oc1ccccc1)C(=O)NNC(=O)OC(C)(C)C (stereo unspecified) ?
RESULT: high value

QUERY: Kindly identify the class of COc1ccc(CCN2CCC(CN(C)Cc3cnn(-c4ccccc4)c3)CC2)cc1 .
RESULT: high value

QUERY: Would you mind sorting Nc1nc(Cl)c(Cl)c(NCC2(O)CCC2)n1 into the appropriate category?
RESULT: high value

QUERY: Band for the recorded TGI of CCSC[C@@H]1C[C@](O)(c2ccc(F)cc2)[C@@H](c2ccc(F)cc2)O1 ?
RESULT: high value

QUERY: # classify by TGI band: Cc1cccc2c3c(sc12)C(c1ccc(F)cc1)C(C#N)=C(N)O3 (stereo unspecified)
RESULT: medium value

QUERY: Record O=C1CC/C(=C/COc2cc(=O)oc3ccccc23)O1 — which class?
RESULT: high value

QUERY: Class (by measured TGI) for Cc1nc2ccccc2nc1N=Nc1ccccc1
RESULT: high value

QUERY: Record COc1cc2c(cc1OC)C(=O)/C(=C/c1cc(C)cc(C)c1)C2 — which class?
RESULT: high value

QUERY: Hi there! Could you help me figure out the category for C[C@@H](CO)NC(=O)c1cc(-c2ccc(Cl)cc2)nn(-c2cnn(C)c2)c1=O please?
RESULT: high value

QUERY: In plain terms, what class is COc1ccccc1C(=O)NCC1CCCN2CCCCC12 (stereo unspecified) ?
RESULT: high value

* * *

System: U251 CNS
Reply using exactly one outcome from active, inactive

Field: example entries. Status: answers known.
CC1SC2(CCCCC2)N(NC(=O)c2[nH]c3ccc(Br)cc3c2-c2ccccc2)C1=O (stereo not drawn) ... inactive
COc1ccc(C(=O)c2sc3nc(-c4cccs4)ccc3c2N)cc1OC ... inactive
O=C1/C(=C/c2ccc(O)cc2)COc2ccc(O)c(O)c21 ... inactive
Cc1cccc2c3c(sc12)C(c1ccc(F)cc1)C(C#N)=C(N)O3 (stereo not drawn) ... active
CC(=O)O[C@H]1CC[C@@]2(C)C(=C/C(=N/OCCN3CCCC3)[C@H]3[C@@H]4CC[C@H](OC(C)=O)[C@@]4(C)CC[C@@H]32)C1 ... inactive

QUERY: Given CCCCNc1ccc(Nc2ccccc2)cc1 , state the outcome it received in this test.
RESULT: inactive

QUERY: What outcome does the record of this test show for Cc1ccc(-n2nnnc2-c2cnc(N3CCOCC3)nc2-c2cccc(C(F)(F)F)c2)cc1 ?
RESULT: inactive

QUERY: In this assay, the call recorded for NC1(Cc2ccc(Cl)cc2)CCN(c2ncnc3[nH]ccc23)CC1 was what?
RESULT: inactive

QUERY: Please share the test call associated with O=[N+]([O-])c1cc([N+](=O)[O-])c(Cl)cc1Cl .
RESULT: active

QUERY: For CCCCOC1OC(COC(=O)C(C)C)C(OC(=O)C(C)C)C(O)C1OC1OC(C)C(OC(=O)CCC)C(OC(=O)C(C)C)C1O (stereo not drawn) , which call appears in the assay record?
RESULT: inactive

* * *

Recorded GI50 values for a group of molecules are listed next.
Tested on: HT29 colon
protocolText: NCI tumour cell line growth inhibition, 48 h

Completed entries (count: 4):
CC([O-])=C1C(=O)c2ccccc2C1=O.CC([O-])=C1C(=O)c2ccccc2C1=O.CC[O-].CC[O-].[Ti+4] ... > 100 µM
Cn1cc(C2=C(Nc3ccccc3)C(=O)NC2=O)c2ccccc21 ... 14.7 µM
O=C1N(Cc2ccccc2Cl)c2ccccc2C12NN=C(c1cccc(Cl)c1)S2 (stereo not given) ... 2.02 µM
CCCCNc1ccc(Nc2ccccc2)cc1 ... 4.37 µM

Alright, here's another molecule for you.
QUERY: What value of GI50 has been reported for the following molecule? CC1SC2(CCCCC2)N(NC(=O)c2[nH]c3ccc(Br)cc3c2-c2ccccc2)C1=O (stereo not given)
RESULT: 8.1 µM

* * *

System: HOP-62 NSCLC
protocolText: NCI tumour cell line growth inhibition, 48 h
Quick reference for TGI among some molecules
The answer is to be given in µM; state only the numeric part.

CC1(C)Cc2c(Br)c(Br)c(Br)c(OCC(O)CN3CCN(c4ccccn4)CC3)c2O1 (stereo unspecified) ... 27.7
CCCCOC1OC(COC(=O)C(C)C)C(OC(=O)C(C)C)C(O)C1OC1OC(C)C(OC(=O)CCC)C(OC(=O)C(C)C)C1O (stereo unspecified) ... 27.4
Cc1[nH]c2cc(F)ccc2c1-c1nc2c3cccnc3c3ncccc3c2[nH]1 ... 1.27
Cc1cc(O)c(C2=NN(c3ccc(S(N)(=O)=O)cc3)C(/C=C/c3ccccc3)C2)cc1Cl (stereo unspecified) ... 14.1
COc1ccc(-c2c3c(nc4n[nH]c(-c5ccc(Cl)cc5)c24)-c2ccccc2C(=O)C3=O)cc1 ... 2.96
CCSC[C@@H]1C[C@](O)(c2ccc(F)cc2)[C@@H](c2ccc(F)cc2)O1 ... 33.4

QUERY: Which value of TGI has been reported for CCOC(=O)/C=C(\C(=O)OCC)n1cc(C)c(=O)n(Cc2cnnn2COCCOC(C)=O)c1=O in the records?
RESULT: 55.6

QUERY: Which TGI reading was recorded for the molecule CN(CCc1ccccn1)C(=S)N/N=C(\c1ccccc1)c1ccccn1 ?
RESULT: 7.95

QUERY: Entry C(=Nc1ccc(-c2nc3ccccc3s2)cc1)c1ccc[nH]1 : reported TGI = ?
RESULT: 27.6

* * *

Test system: SNB-75 CNS
protocolText: NCI tumour cell line growth inhibition, 48 h
Examples of compounds with documented TGI follow.

Observe how each entry below is paired with its result.
O=C(O)c1c(Br)c(Br)c(Br)c(Br)c1C1c2ccc(O)cc2Oc2cc(O)ccc21 ... > 100 µM
CN(C)c1ccc(/C=N/S(=O)(=O)c2ccc(-n3c(-c4ccccc4)nc4c(Br)cc(Br)cc4c3=O)cc2)cc1 ... 71.3 µM
CCCCNc1ccc(Nc2ccccc2)cc1 ... 61.9 µM
COc1ccc(C(=O)C#Cc2c[nH]c(=O)[nH]c2=O)cc1 ... 45.5 µM
Nc1nc(N)c2nc3c(nc2n1)CCCCCCCCCC3 ... 51.2 µM

QUERY: Which TGI value is on record for C/C(=N\NC(=S)N1CCCCCC1)c1cccc2cccnc12 ?
RESULT: > 91.6 µM

QUERY: Can you share its TGI? I mean this compound: NC(CSSCC(N)C(=O)O)C(=O)O (centres undefined)
RESULT: > 100 µM

QUERY: What value of measured TGI is listed for CC1OC(OC2C(O[C@H]3CC[C@@]4(C)C(=CC[C@H]5[C@@H]6C[C@@H]7O[C@]8(CC[C@@H](C)CO8)[C@@H](C)[C@@H]7[C@@]6(C)CC[C@@H]54)C3)OC(CO)C(O)C2O)C(O)C(O)C1O (some centres undefined) ?
RESULT: 2.62 µM

QUERY: // query TGI value for entry CC1(C)Cc2c(Br)c(Br)c(Br)c(OCC(O)CN3CCN(c4ccccn4)CC3)c2O1 (centres undefined)
RESULT: 39 µM
